Origin of measurements: patent US7504393B2

Molecular target: acetylcholinesterase (Mus musculus)
Construct: phosphate buffer solution containing the brain homogenate; from tissue; host or cells: mouse whole brain homogenate
Sequence (P21836 32-614): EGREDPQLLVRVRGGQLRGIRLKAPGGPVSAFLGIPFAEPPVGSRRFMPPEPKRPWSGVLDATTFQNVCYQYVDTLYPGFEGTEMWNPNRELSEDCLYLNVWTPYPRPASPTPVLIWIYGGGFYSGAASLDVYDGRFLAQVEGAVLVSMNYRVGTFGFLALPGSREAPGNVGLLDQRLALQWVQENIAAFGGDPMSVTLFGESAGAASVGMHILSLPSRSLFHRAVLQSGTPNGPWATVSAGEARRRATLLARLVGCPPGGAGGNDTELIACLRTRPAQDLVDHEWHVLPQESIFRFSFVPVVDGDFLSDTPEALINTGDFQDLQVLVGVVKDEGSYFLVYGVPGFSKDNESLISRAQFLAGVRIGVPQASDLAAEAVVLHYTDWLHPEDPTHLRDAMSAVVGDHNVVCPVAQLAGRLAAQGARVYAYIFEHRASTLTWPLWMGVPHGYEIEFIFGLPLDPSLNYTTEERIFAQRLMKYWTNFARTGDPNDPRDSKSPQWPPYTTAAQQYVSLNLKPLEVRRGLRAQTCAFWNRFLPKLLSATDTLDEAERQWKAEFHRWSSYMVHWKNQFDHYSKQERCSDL
Assay: biochemical
Conditions: mouse whole brain homogenate; acetylthiocholine/DTNB, absorbance 412 nm; read-out: IC50 (nM) Acetylcholinesterase inhibitory activity
Where a name gives a salt, the structure may show the parent alone.
Reported IC50 by item:
Provide the reading as a plain figure in nM.

In [3]: df
Out[3]:
                                   compound  assay_value
0  CN[C@@H](CCOc1ccc([N+](=O)[O-])cc1)c1cccc(OC(=O)N(C)C)c1 [Test Compound 125, hydrochloride]           19
1  CN(C)C(=O)Oc1ccc2c(c1)CCCN(C)C2CCOc1ccc([N+](=O)[O-])cc1Cl (stereo not drawn) [Test Compound 193, hydrochloride]           24

Now take the following compound into account.
Data request: Item CN(C)C(=O)Oc1ccc(C(CCOc2ccc(F)cc2)N(C)C)cc1 (stereo not drawn) [Test Compound 31, hydrochloride] : provide IC50
Data returned: 440

###

molecular target: serotonin re-uptake (Rattus norvegicus); construct: synaptosome prepared from rat whole brains except the cerebellums; from tissue; host or cells: synaptosomes from rat whole brain except the cerebellum; assay: Serotonin re-uptake inhibitory activity (synaptosome, [3H]5-HT); assay type: biochemical
Counter-ions that a name gives are not always drawn.
measured parameter: IC50 (nM)
Provide the reading as a plain figure in nM.

Data request: Item Cc1cc(OCCC2c3cccc(OC(=O)N(C)C)c3C=CCN2C)ccc1Cl (stereo not shown) [Test Compound 202, hydrochloride] : provide IC50
Data returned: 900

###

target: acetylcholinesterase (Mus musculus, UniProt P21836); construct: phosphate buffer solution containing the brain homogenate; from tissue; host or cells: mouse whole brain homogenate; experiment: biochemical
Where a name gives a salt, the structure may show the parent alone.
measured parameter: IC50 (µM)
Provide the reading as a plain figure in µM.

                                   compound                              assay_target  measured_parameter  assay_value
0  CNC(CCOc1cccc(F)c1)c1ccc(OC(=O)N(C)C)cc1 (stereo not shown) [Test Compound 68, hydrochloride]  acetylcholinesterase (Mus musculus, UniProt P21836)                IC50         0.58
1  Cc1cc(OCCC2c3ccc(OC(=O)N(C)C)cc3CCN2C)ccc1Cl (stereo not shown) [Test Compound 188, hydrochloride]  acetylcholinesterase (Mus musculus, UniProt P21836)                IC50        0.053
2  CN(C)C(=O)Oc1ccc(C(CCOc2ccc(F)c(F)c2)N(C)C)cc1 (stereo not shown) [Test Compound 76, hydrochloride]  acetylcholinesterase (Mus musculus, UniProt P21836)                IC50          0.3
3  CN(C)C(=O)Oc1ccc([C@H](CCOc2ccc([N+](=O)[O-])cc2Cl)N(C)C)cc1 [Test Compound 129, hydrochloride]  acetylcholinesterase (Mus musculus, UniProt P21836)                IC50        0.064
4  CN(C)C(=O)Oc1ccc2c(c1)C=CCN(C)C2CCOc1ccc(F)cc1Cl (stereo not shown) [Test Compound 195, hydrochloride]  acetylcholinesterase (Mus musculus, UniProt P21836)                IC50         0.05

Data request: Item CN(C)C(=O)Oc1ccc(C(CCOc2c(F)c(F)c(F)c(F)c2F)N(C)C)cc1 (stereo not shown) [Test Compound 181, hydrochloride] : provide IC50
Data returned: 0.198

Data request: Item CN(C)C(=O)Oc1ccc2c(c1)CCN(C)C2CCOc1ccc([N+](=O)[O-])cc1 (stereo not shown) [Test Compound 187, hydrochloride] : provide IC50
Data returned: 0.011

###

biological target: acetylcholinesterase (Mus musculus, UniProt P21836); construct: phosphate buffer solution containing the brain homogenate; from tissue; host or cells: mouse whole brain homogenate; assay: biochemical
Counter-ions that a name gives are not always drawn.
Reported pIC50 by item:
Units for pIC50: none; it is -log10 of a concentration expressed in mol/L.

In [3]: df
Out[3]:
                                   compound  assay_value
0  CNC(CCOc1ccc([N+](=O)[O-])cc1)c1cccc(OC(=O)N(C)C)c1 (stereo not shown) [Test Compound 95, hydrochloride]         7.28
1  CNC(CCOc1ccc2ncccc2c1)c1ccc(OC(=O)N(C)C)cc1 (stereo not shown) [Test Compound 180, hydrochloride]         6.95
2  CN(C)C(=O)Oc1ccc([C@@H](CCOc2ccc(F)c(F)c2)N(C)C)cc1 [Test Compound 152, hydrochloride]         6.51

Now take the following compound into account.
Data request: Item CN(C)C(=O)Oc1cccc([C@@H](CCOc2ccc([N+](=O)[O-])cc2)N(C)C)c1 [Test Compound 136, hydrochloride] : provide pIC50
Data returned: 6.01

###

biological target: serotonin re-uptake (Rattus norvegicus, UniProt P31652); construct: synaptosome prepared from rat whole brains except the cerebellums; from tissue; host or cells: synaptosomes from rat whole brain except the cerebellum; assay: Serotonin re-uptake inhibitory activity (synaptosome, [3H]5-HT); type: biochemical; conditions: synaptosome from rat whole brain except cerebellum; [3H]5-HT, 37° C.; read-out: IC50 (nM) Serotonin re-uptake inhibitory activity
Sequence (P31652 whole entry): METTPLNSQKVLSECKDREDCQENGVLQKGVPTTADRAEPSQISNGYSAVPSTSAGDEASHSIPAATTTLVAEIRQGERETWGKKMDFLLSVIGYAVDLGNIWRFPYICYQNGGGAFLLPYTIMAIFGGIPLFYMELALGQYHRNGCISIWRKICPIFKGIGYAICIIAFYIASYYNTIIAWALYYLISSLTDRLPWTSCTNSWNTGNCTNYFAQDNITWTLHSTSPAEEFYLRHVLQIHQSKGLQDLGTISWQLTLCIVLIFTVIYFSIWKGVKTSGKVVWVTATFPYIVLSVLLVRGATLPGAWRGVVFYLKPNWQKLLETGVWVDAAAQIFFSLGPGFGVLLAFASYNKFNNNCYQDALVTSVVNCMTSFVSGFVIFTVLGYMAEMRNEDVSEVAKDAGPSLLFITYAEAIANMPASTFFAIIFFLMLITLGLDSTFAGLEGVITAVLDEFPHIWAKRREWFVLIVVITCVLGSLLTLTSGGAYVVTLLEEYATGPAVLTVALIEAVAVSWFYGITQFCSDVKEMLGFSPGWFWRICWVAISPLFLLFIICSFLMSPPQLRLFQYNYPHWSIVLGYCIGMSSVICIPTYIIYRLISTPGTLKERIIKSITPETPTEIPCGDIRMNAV
Where a name gives a salt, the structure may show the parent alone.
Could you please classify the records by IC50 using these ranges: lower range: < 70 nM; middle range: ≥ 70 nM and < 300 nM; upper range: ≥ 300 nM

                                   compound                              assay_target  assigned_category
0  CN(C)C(=O)Oc1ccc([C@H](CCOc2ccc([N+](=O)[O-])cc2Cl)N(C)C)cc1 [Test Compound 129, hydrochloride]  serotonin re-uptake (Rattus norvegicus, UniProt P31652)        upper range
1  CNC(CCOc1ccc(Cl)c([N+](=O)[O-])c1)c1cccc(OC(=O)N(C)C)c1 (centres unmarked) [Test Compound 203, hydrochloride]  serotonin re-uptake (Rattus norvegicus, UniProt P31652)        lower range
2  CNC(CCOc1cccc2ccccc12)c1ccc(OC(=O)N(C)C)cc1 (centres unmarked) [Test Compound 179, hydrochloride]  serotonin re-uptake (Rattus norvegicus, UniProt P31652)       middle range
3  CNC(CCOc1ccc([N+](=O)[O-])cc1)c1cccc(OC(=O)N(C)C)c1 (centres unmarked) [Test Compound 95, hydrochloride]  serotonin re-uptake (Rattus norvegicus, UniProt P31652)       middle range
4  CN[C@@H](CCOc1ccc([N+](=O)[O-])cc1)c1ccc(OC(=O)N(C)C)c(C)c1 [Test Compound 183, hydrochloride]  serotonin re-uptake (Rattus norvegicus, UniProt P31652)        lower range
5  CN(C)C(=O)Oc1ccc2c(c1)CCCN(C)C2CCOc1ccc([N+](=O)[O-])cc1Cl (centres unmarked) [Test Compound 193, hydrochloride]  serotonin re-uptake (Rattus norvegicus, UniProt P31652)        upper range
6  CNC(CCOc1ccc(F)cc1)c1ccc(OC(=O)N(C)C)cc1 (centres unmarked) [Test Compound 30, hydrochloride]  serotonin re-uptake (Rattus norvegicus, UniProt P31652)        upper range
7  CN[C@H](CCOc1ccc([N+](=O)[O-])cc1)c1ccc(OC(=O)N(C)C)c(C)c1 [Test Compound 184, hydrochloride]  serotonin re-uptake (Rattus norvegicus, UniProt P31652)        lower range
8  CN[C@@H](CCOc1ccc([N+](=O)[O-])cc1)c1cccc(OC(=O)N(C)C)c1 [Test Compound 125, hydrochloride]  serotonin re-uptake (Rattus norvegicus, UniProt P31652)        upper range
9  CN(C)C(=O)Oc1cccc([C@@H](CCOc2ccc([N+](=O)[O-])cc2)N(C)C)c1 [Test Compound 136, hydrochloride]  serotonin re-uptake (Rattus norvegicus, UniProt P31652)       middle range

Data request: For the record CN(C)C(=O)Oc1ccc(C(CCOc2ccc([N+](=O)[O-])cc2)N(C)C)cc1 (centres unmarked) [Test Compound 89, hydrochloride] , report the class its IC50 corresponds to.
Data returned: upper range

Data request: For the record CN(C)C(=O)Oc1ccc(C(CCOc2c(F)c(F)c(F)c(F)c2F)N(C)C)cc1 (centres unmarked) [Test Compound 181, hydrochloride] , report the class its IC50 corresponds to.
Data returned: lower range

Data request: For the record CN(C)C(=O)Oc1ccc(C(CCOc2ccc(F)cc2)N(C)C)cc1 (centres unmarked) [Test Compound 31, hydrochloride] , report the class its IC50 corresponds to.
Data returned: upper range
